biological target: huCTLA4 (Homo sapiens, UniProt P16410); assay: Flow binding to CHO cells stably expressing CTLA4; design: huCTLA4 and huPD-L1, full-length mammalian surface expression constructs were generated; expressed in transfected cells; host or cells: CHO cells, lentiviral transduction, sorted to >98% purity; details: Table E11; CHO cells stably expressing CTLA4; 33.3 nM
Sequence (P16410 36-223): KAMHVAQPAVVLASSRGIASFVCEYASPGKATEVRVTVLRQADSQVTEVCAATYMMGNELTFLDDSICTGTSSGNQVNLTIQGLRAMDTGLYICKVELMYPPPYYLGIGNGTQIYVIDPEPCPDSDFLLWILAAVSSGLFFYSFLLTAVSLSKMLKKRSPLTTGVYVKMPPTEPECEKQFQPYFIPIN
Record form. Attribute: CTLA4 MFI at 33.3 nM. Fill in for each entry.

Input line: // lookup CTLA4 MFI at 33.3 nM for H18Y/E35D/M38I/M47L/V68M/L85M (protein, UniProt P33681 35-288, looked up, variant H18Y E35D M38I M47L V68M L85M) T-lymphocyte activation …: VIHVTKEVKEVATLSCGYNVSVEELAQTRIYWQKDKKIVLTMMSGDLNIWPEYKNRTIFDITNNLSIMILALRPSDEGTYECVVMKYEKDAFKREHLAEVTLSVKADFPTPSISDFEIPTSNIRRIICSTSGGFPEPHLSWLENGEELNAINTTVSQDPETELYAVSSKLDFNMTTNHSFMCLIKYGHLRVNQTFNWNTTKQEHFPDNLLPSWAITLISVNGIFVICCLTYCFAPRCRERRRNERLRRESVRPV
Output line: 139

Input line: Likewise for E35D/D46E/M47V/V68M/L85Q (protein, UniProt P33681 35-288, looked up, variant E35D D46E M47V V68M L85Q) T-lymphocyte activation …: VIHVTKEVKEVATLSCGHNVSVEELAQTRIYWQKDKKMVLTMMSGEVNIWPEYKNRTIFDITNNLSIMILALRPSDEGTYECVVQKYEKDAFKREHLAEVTLSVKADFPTPSISDFEIPTSNIRRIICSTSGGFPEPHLSWLENGEELNAINTTVSQDPETELYAVSSKLDFNMTTNHSFMCLIKYGHLRVNQTFNWNTTKQEHFPDNLLPSWAITLISVNGIFVICCLTYCFAPRCRERRRNERLRRESVRPV ?
Output line: 15533

Input line: Likewise for H18Y/E35D/M47L/Y53F/V68M/A71G (protein, UniProt P33681 35-288, looked up, variant H18Y E35D M47L Y53F V68M A71G) T-lymphocyte activation …: VIHVTKEVKEVATLSCGYNVSVEELAQTRIYWQKDKKMVLTMMSGDLNIWPEFKNRTIFDITNNLSIMILGLRPSDEGTYECVVLKYEKDAFKREHLAEVTLSVKADFPTPSISDFEIPTSNIRRIICSTSGGFPEPHLSWLENGEELNAINTTVSQDPETELYAVSSKLDFNMTTNHSFMCLIKYGHLRVNQTFNWNTTKQEHFPDNLLPSWAITLISVNGIFVICCLTYCFAPRCRERRRNERLRRESVRPV ?
Output line: 146

Input line: Likewise for H18Y/E35D/V68M/T79M/L85M (protein, UniProt P33681 35-288, looked up, variant H18Y E35D V68M T79M L85M) T-lymphocyte activation …: VIHVTKEVKEVATLSCGYNVSVEELAQTRIYWQKDKKMVLTMMSGDMNIWPEYKNRTIFDITNNLSIMILALRPSDEGMYECVVMKYEKDAFKREHLAEVTLSVKADFPTPSISDFEIPTSNIRRIICSTSGGFPEPHLSWLENGEELNAINTTVSQDPETELYAVSSKLDFNMTTNHSFMCLIKYGHLRVNQTFNWNTTKQEHFPDNLLPSWAITLISVNGIFVICCLTYCFAPRCRERRRNERLRRESVRPV ?
Output line: 16287

Input line: Likewise for E35D/M47V/N48KN68M/L85M (protein) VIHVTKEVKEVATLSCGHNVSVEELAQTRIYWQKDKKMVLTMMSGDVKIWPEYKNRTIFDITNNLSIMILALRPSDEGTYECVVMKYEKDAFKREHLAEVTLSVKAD ?
Output line: 15581
